Test system: SNU-5 (Gastric Carcinoma)
Experiment: Bliss excess, mean over the matrix (fraction); higher = more synergy
result type: Bliss excess
Numbers only.

C=CCn1c(=O)c2cnc(Nc3ccc(N4CCN(C)CC4)cc3)nc2n1-c1cccc(C(C)(C)O)n1 [AZD1775] + C1CN(CCC1(C(=O)N[C@@H](CCO)C2=CC=C(C=C2)Cl)N)C3=NC=NC4=C3C=CN4 [Capivasertib] (first compound max 3 µM, partner max 3 µM)
-0.0655

Dear colleague, could you please provide Bliss excess for the compounds listed below?
1. CC(=O)c1c(C)c2cnc(Nc3ccc(N4CCNCC4)cn3)nc2n(C2CCCC2)c1=O [Palbociclib] + Cc1c2c(nn1C)CSCc1cc(n(C)n1)CSc1cc(c3ccccc3c1)OCCCc1c(C(=O)O)n(C)c3c-2c(Cl)ccc13 [AZD5991] (first compound max 10 µM, 7x7, partner max 1 µM)
2. COc1nnc2ccc(N3CCC(c4ccc(OCCN5CCN(C)C(=O)[C@H]5C)cc4)CC3)nn12 [AZD5153] + Cc1c2c(nn1C)CSCc1cc(n(C)n1)CSc1cc(c3ccccc3c1)OCCCc1c(C(=O)O)n(C)c3c-2c(Cl)ccc13 [AZD5991] (first compound max 1 µM, 7x7, partner max 1 µM)
3. CS(=O)(=O)CCNCc1ccc(-c2ccc3ncnc(Nc4ccc(OCc5cccc(F)c5)c(Cl)c4)c3c2)o1 [Lapatinib] + NC1(c2ccc(-c3nc4ccn5c(=O)[nH]nc5c4cc3-c3ccccc3)cc2)CCC1 [MK-2206] (first compound max 10 µM, 7x7, partner max 10 µM)
4. CC(=O)Nc1cccc(-n2c(=O)n(C3CC3)c(=O)c3c(Nc4ccc(I)cc4F)n(C)c(=O)c(C)c32)c1 [Trametinib] + Cc1nc(-c2cn3c(n2)-c2ccc(-c4cnn(C(C)(C)C(N)=O)c4)cc2OCC3)n(C(C)C)n1 [Taselisib] (first compound max 1 µM, 7x7, partner max 10 µM)
5. Cc1c2c(nn1C)CSCc1cc(n(C)n1)CSc1cc(c3ccccc3c1)OCCCc1c(C(=O)O)n(C)c3c-2c(Cl)ccc13 [AZD5991] + C[C@@H]1COCCN1C2=NC(=NC(=C2)C3(CC3)[S@](=N)(=O)C)C4=C5C=CNC5=NC=C4 [AZD6738] (first compound max 1 µM, 7x7, partner max 10 µM)
6. CC(=O)c1c(C)c2cnc(Nc3ccc(N4CCNCC4)cn3)nc2n(C2CCCC2)c1=O [Palbociclib] + Cn1cnc2c(F)c(Nc3ccc(Br)cc3Cl)c(C(=O)NOCCO)cc21 [Selumetinib] (first compound max 10 µM, 7x7, partner max 10 µM)

[A]
-0.0206
-0.0069
0.0404
0.141
-0.0075
0.0031

* * *

Tested on: NB10 (Neuroblastoma)
Experiment: Bliss excess, mean over the matrix (fraction); higher = more synergy
Exercise: for every item that follows, state its recorded Bliss excess.

Reference set, count: 3
CCN(CCO)CCCOc1ccc2c(Nc3cc(CC(=O)Nc4cccc(F)c4)[nH]n3)ncnc2c1 [AZD2811] + C=CCn1c(=O)c2cnc(Nc3ccc(N4CCN(C)CC4)cc3)nc2n1-c1cccc(C(C)(C)O)n1 [AZD1775] (first compound max 1 µM, partner max 1 µM)
-0.0399
Cc1c2c(nn1C)CSCc1cc(n(C)n1)CSc1cc(c3ccccc3c1)OCCCc1c(C(=O)O)n(C)c3c-2c(Cl)ccc13 [AZD5991] + Nc1ccn([C@@H]2O[C@H](CO)[C@@H](O)C2(F)F)c(=O)n1 [Gemcitabine] (first compound max 1 µM, 7x7, partner max 0.3 µM)
-0.0006
C[C@@H]1COCCN1c1cc(C2([S@](C)(=N)=O)CC2)nc(-c2ccnc3[nH]ccc23)n1 [AZD6738] + Nc1ccn([C@@H]2O[C@H](CO)[C@@H](O)C2(F)F)c(=O)n1 [Gemcitabine] (first compound max 10 µM, 7x7, partner max 0.3 µM)
0.0622

Moving on to the next compound.
Lab note: compound COc1nnc2ccc(N3CCC(c4ccc(OCCN5CCN(C)C(=O)[C@H]5C)cc4)CC3)nn12 [AZD5153] + Cc1c2c(nn1C)CSCc1cc(n(C)n1)CSc1cc(c3ccccc3c1)OCCCc1c(C(=O)O)n(C)c3c-2c(Cl)ccc13 [AZD5991] (first compound max 1 µM, 7x7, partner max 1 µM) tested on NB10 (Neuroblastoma); recorded Bliss excess was -0.0446

* * *

System: Hs-578-T (Breast Carcinoma)
Assay: Bliss excess, mean over the matrix (fraction); higher = more synergy
Exercise: for every item that follows, state its recorded Bliss excess.
One number for each entry.

Reference set, count: 2
CN(CCO)CC[C@H](CSc1ccccc1)Nc1ccc(S(=O)(=O)NC(=O)c2ccc(N3CCC([C@@H](O)c4ccccc4-c4ccc(Cl)cc4)CC3)cc2)cc1S(=O)(=O)C(F)(F)F [AZD4320] + C[C@@H]1COCCN1C2=NC(=NC(=C2)C3(CC3)[S@](=N)(=O)C)C4=C5C=CNC5=NC=C4 [AZD6738] (first compound max 1 µM, 7x7, partner max 10 µM)
-0.136
Cc1cc2ncnn2cc1Nc1ncc2c(n1)n(C1CCOCC1)c(=O)n2C [AZD7648] + C[C@@H]1COCCN1C2=NC(=NC(=C2)C3(CC3)[S@](=N)(=O)C)C4=C5C=CNC5=NC=C4 [AZD6738] (first compound max 10 µM, 7x7, partner max 10 µM)
-0.0744

Bliss excess measured on Cn1cnc2c(F)c(Nc3ccc(Br)cc3Cl)c(C(=O)NOCCO)cc21 [Selumetinib] + C[C@@H]1COCCN1C2=NC(=NC(=C2)C3(CC3)[S@](=N)(=O)C)C4=C5C=CNC5=NC=C4 [AZD6738] (first compound max 10 µM, 7x7, partner max 10 µM) = 0.009

* * *

Test system: NCI-H82 (Small Cell Lung Carcinoma)
Assay: Bliss excess, mean over the matrix (fraction); higher = more synergy
Exercise: for every item that follows, state its recorded Bliss excess.
One number for each entry.

CC1(C)CCC(CN2CCN(c3ccc(C(=O)NS(=O)(=O)c4ccc(NCC5CCOCC5)c([N+](=O)[O-])c4)c(Oc4cnc5[nH]ccc5c4)c3)CC2)=C(c2ccc(Cl)cc2)C1 [Venetoclax] + C[C@@H](Nc1cc(F)cc(F)c1)c1cc(C(=O)N(C)C)cc2c(=O)cc(N3CCOCC3)oc12 [AZD8186] (first compound max 1 µM, 7x7, partner max 3 µM)
-0.0452

Moving on to the next compound.
Lab note: compound Cc1nc(Nc2ncc(C(=O)Nc3c(C)cccc3Cl)s2)cc(N2CCN(CCO)CC2)n1 [Dasatinib] + CC(=O)Nc1cccc(-n2c(=O)n(C3CC3)c(=O)c3c(Nc4ccc(I)cc4F)n(C)c(=O)c(C)c32)c1 [Trametinib] (first compound max 2 µM, 7x7, partner max 1 µM) tested on NCI-H82 (Small Cell Lung Carcinoma); recorded Bliss excess was -0.0149

* * *

Exercise: for every item that follows, state its recorded Bliss excess.
System: EC-GI-10 (Esophageal Squamous Cell Carcinoma)
Test: Bliss excess, mean over the matrix (fraction); higher = more synergy
One number for each entry.

Reference set, count: 3
Cc1c2c(nn1C)CSCc1cc(n(C)n1)CSc1cc(c3ccccc3c1)OCCCc1c(C(=O)O)n(C)c3c-2c(Cl)ccc13 [AZD5991] + CCN(CCO)CCCOc1ccc2c(Nc3cc(CC(=O)Nc4cccc(F)c4)[nH]n3)ncnc2c1 [AZD2811] (first compound max 1 µM, 7x7, partner max 1 µM)
0.156
Cc1cc2ncnn2cc1Nc1ncc2c(n1)n(C1CCOCC1)c(=O)n2C [AZD7648] + O=C(c1cc(Cc2n[nH]c(=O)c3ccccc23)ccc1F)N1CCN(C(=O)C2CC2)CC1 [Olaparib] (first compound max 10 µM, 7x7, partner max 10 µM)
-0.0478
COc1cc2ncnc(Nc3ccc(F)c(Cl)c3)c2cc1OCCCN1CCOCC1 [Gefitinib] + CC(C)n1c(=O)n(C)c2cnc3cc(F)c(-c4ccc(OCCCN5CCCCC5)nc4)cc3c21 [AZD1390] (first compound max 10 µM, 7x7, partner max 0.3 µM)
-0.0526

Moving on to the next compound.
Bliss excess measured on C=CCn1c(=O)c2cnc(Nc3ccc(N4CCN(C)CC4)cc3)nc2n1-c1cccc(C(C)(C)O)n1 [AZD1775] + C[C@@H]1COCCN1C2=NC(=NC(=C2)C3(CC3)[S@](=N)(=O)C)C4=C5C=CNC5=NC=C4 [AZD6738] (first compound max 1 µM, partner max 10 µM) = 0.0535

* * *

Exercise: for every item that follows, state its recorded combination Emax.
Tested on: NCI-H82 (Small Cell Lung Carcinoma)
Experiment: combination Emax (second highest fraction inhibited in the dose matrix, 72 h); higher = more inhibition; extreme values may be limits of the assay
Answers are plain numbers.

Reference set, count: 6
CC(=O)c1c(C)c2cnc(Nc3ccc(N4CCNCC4)cn3)nc2n(C2CCCC2)c1=O [Palbociclib] + CC1(C)CCC(CN2CCN(c3ccc(C(=O)NS(=O)(=O)c4ccc(NCC5CCOCC5)c([N+](=O)[O-])c4)c(Oc4cnc5[nH]ccc5c4)c3)CC2)=C(c2ccc(Cl)cc2)C1 [Venetoclax] (first compound max 10 µM, 7x7, partner max 1 µM)
0.634
NC1(C(=O)N[C@@H](CCO)c2ccc(Cl)cc2)CCN(c2ncnc3[nH]ccc23)CC1 [Capivasertib] + CC(C)n1c(=O)n(C)c2cnc3cc(F)c(-c4ccc(OCCCN5CCCCC5)nc4)cc3c21 [AZD1390] (first compound max 10 µM, 7x7, partner max 0.3 µM)
0.912
Cc1c2c(nn1C)CSCc1cc(n(C)n1)CSc1cc(c3ccccc3c1)OCCCc1c(C(=O)O)n(C)c3c-2c(Cl)ccc13 [AZD5991] + Cn1cnc2c(F)c(Nc3ccc(Br)cc3Cl)c(C(=O)NOCCO)cc21 [Selumetinib] (first compound max 1 µM, 7x7, partner max 3 µM)
0.922
O=C(c1cc(Cc2n[nH]c(=O)c3ccccc23)ccc1F)N1CCN(C(=O)C2CC2)CC1 [Olaparib] + CN(CC[C@H](CSC1=CC=CC=C1)NC2=C(C=C(C=C2)S(=O)(=O)NC(=O)C3=CC=C(C=C3)N4CCC(CC4)[C@H](C5=CC=CC=C5C6=CC=C(C=C6)Cl)O)S(=O)(=O)C(F)(F)F)CCO [AZD4320] (first compound max 10 µM, 7x7, partner max 1 µM)
0.382
C[C@@H](c1ccc2nccn2c1)n1nnc2ncc(-c3cnn(C)c3)nc21 [Savolitinib] + Cc1c2c(nn1C)CSCc1cc(n(C)n1)CSc1cc(c3ccccc3c1)OCCCc1c(C(=O)O)n(C)c3c-2c(Cl)ccc13 [AZD5991] (first compound max 1 µM, 7x7, partner max 1 µM)
0.875
CN(C)CCCOc1ccc(-c2ccc3ncc4c(c3c2)n(C2CCOCC2)c(=O)n4C)cn1 [AZD0156] + C[C@@H]1COCCN1C2=NC(=NC(=C2)C3(CC3)[S@](=N)(=O)C)C4=C5C=CNC5=NC=C4 [AZD6738] (first compound max 1 µM, 7x7, partner max 10 µM)
0.948

Moving on to the next molecule.
combination Emax measured on C=CCn1c(=O)c2cnc(Nc3ccc(N4CCN(C)CC4)cc3)nc2n1-c1cccc(C(C)(C)O)n1 [AZD1775] + C[C@@H]1COCCN1C2=NC(=NC(=C2)C3(CC3)[S@](=N)(=O)C)C4=C5C=CNC5=NC=C4 [AZD6738] (first compound max 1 µM, partner max 10 µM) = 0.979
